Attribution: ChEMBL document CHEMBL4627373

The entries below come with measured pIC50 values attached.
Tested on: L02
EXPERIMENTAL DETAILS: Cytotoxicity against human LO2 cells assessed as reduction in cell viability after 24 hrs by CCK8 assay
Assay type: cell-based
PROTOCOL CONDITIONS: L02, 24 h
*1 amine or outer side, *2 acyl side, *3 side chain or, on linkers, in order; H or OH if unused. Where a SMILES comes first, the peptide text is derived from it. [ ]: non-standard residue; d: D form. X6 = C=C[C@](C)(CO)n1cc(C[C@H](N[*:1])C(=O)[*:2])c2ccccc21; Tyr(3-NO2) = N[C@@H](Cc1ccc(O)c([N+](=O)[O-])c1)C(=O)O; X4 = C[C@H](C[C@@H](C(=O)[*:2])N(C)[*:1])C(=O)O; Gly(E-crotyl) = C/C=C/C[C@H](N)C(=O)O; NMeL = CN[C@@H](CC(C)C)C(=O)O
Here pIC50 is given on a logarithmic scale as minus log10 of the concentration in mol/L.

Input line: pIC50 for C=C[C@](C)(CO)n1cc(C[C@@H]2NC(=O)[C@H](C/C=C/C)NC(=O)[C@H](CC(C)C)N3C(=O)[C@H](C[C@H](C)[C@H]3O)N(C)C(=O)[C@H](C)NC(=O)[C@H](Cc3ccc(O)c([N+](=O)[O-])c3)NC(=O)[C@H](CC(C)C)N(C)C2=O)c2ccccc21 ?
Output line: 4.51

Input line: pIC50 for C=C[C@](C)(CO)n1cc(C[C@@H]2NC(=O)[C@H](C/C=C/C)NC(=O)[C@H](CC(C)C)NC(=O)[C@H](C[C@@H](C)C(=O)O)N(C)C(=O)[C@H](C)NC(=O)[C@H](Cc3ccc(O)c([N+](=O)[O-])c3)NC(=O)[C@H](CC(C)C)N(C)C2=O)c2ccccc21 (cyclo(A[X4]L[Gly(E-crotyl)][X6][NMeL][Tyr(3-NO2)])) ?
Output line: 4.31
